Overview of reported inhibition at 10 µM across a group of compounds:
# SYSTEM_TESTED: HIV-1 protease (wild-type, WT) (Human immunodeficiency virus type 1 group M subtype B, UniProt P04585)
# Construct: purified HIV-1 protease (wild-type, WT)
# ASSAY_METHOD_TEXT: Inhibition of purified wild-type HIV-1 protease (fluorogenic substrate cleavage), Ki and % inhibition
# Assay type: biochemical
# CONDITIONS_USED: read-out: % inhib
EXPERIMENTAL_ENDPOINT: inhibition at 10 µM (%)

| COMPOUND | EXPERIMENTAL_ENDPOINT | OBSERVED_VALUE |
| --- | --- | --- |
| O=C(N[C@@H](Cc1ccccc1)[C@H](O)[C@H](O)[C@H](Cc1ccccc1)NC(=O)c1cc(O)c2ccccc2n1)c1cc(O)c2ccccc2n1 [Compound 21] | inhibition at 10 µM | 31 |
| O=C(N[C@@H](Cc1ccccc1)[C@H](O)[C@H](O)[C@H](Cc1ccccc1)NC(=O)c1cccc(OCCOc2ccccc2)c1)c1cccc(OCCOc2ccccc2)c1 [Compound 19] | inhibition at 10 µM | 9 |
| O=C(Cc1ccccc1)N[C@@H](Cc1ccccc1)[C@H](O)[C@H](O)[C@H](Cc1ccccc1)NC(=O)Cc1ccccc1 [Compound 5] | inhibition at 10 µM | 38 |
| O=C(N[C@@H](Cc1ccccc1)[C@H](O)[C@H](O)[C@H](Cc1ccccc1)NC(=O)c1cccc([N+](=O)[O-])c1)c1cccc([N+](=O)[O-])c1 [Compound 22] | inhibition at 10 µM | 40 |
| COCCOCCOc1cccc(C(=O)N[C@@H](Cc2ccccc2)[C@H](O)[C@H](O)[C@H](Cc2ccccc2)NC(=O)c2cccc(OCCOCCOC)c2)c1 [Compound 18] | inhibition at 10 µM | 63 |
| O=C(N[C@@H](Cc1ccccc1)[C@@H](O)[C@H](O)[C@H](Cc1ccccc1)NC(=O)c1ccccc1O)c1ccccc1O [Compound 11] | inhibition at 10 µM | 66 |
| O=C(N[C@@H](Cc1ccccc1)[C@@H](O)[C@H](O)[C@H](Cc1ccccc1)NC(=O)c1ccccc1)c1ccccc1 [Compound 6] | inhibition at 10 µM | 55 |
| O=C(N[C@@H](Cc1ccccc1)[C@H](O)[C@H](O)[C@H](Cc1ccccc1)NC(=O)c1cc(=O)c2ccccc2o1)c1cc(=O)c2ccccc2o1 [Compound 20] | inhibition at 10 µM | 67 |
| O=C(Cc1ccccc1O)N[C@@H](Cc1ccccc1)[C@H](O)[C@H](O)[C@H](Cc1ccccc1)NC(=O)Cc1ccccc1O [Compound 5b] | inhibition at 10 µM | 66 |

====

# SYSTEM_TESTED: HIV-1 protease (wild-type, WT) (Human immunodeficiency virus type 1 group M subtype B)
# Construct: purified HIV-1 protease (wild-type, WT)
# ASSAY_METHOD_TEXT: Inhibition of purified wild-type HIV-1 protease (fluorogenic substrate cleavage), Ki and % inhibition
# Type: biochemical
# CONDITIONS_USED: Table V; spread wrapped on the next line: DN-1 ± 0.6, DN-4 ± 0.09, DN-5 ± 1.3, DN-6B ± 0.3, DN-10 ± 0.007, DN-11 ± 0.1; read-out: Ki
pKi: −log10 of the molar value.
Overview of reported pKi across a group of compounds:

| COMPOUND_SMILES | pKi |
| --- | --- |
| CC(C)(C)OC(=O)N[C@@H](Cc1ccccc1)[C@@H](O)[C@@H](O)[C@H](Cc1ccccc1)NC(=O)OCc1ccccc1 | 8.51 |
| O=C(N[C@@H](Cc1ccccc1)[C@H](O)[C@H](O)[C@H](Cc1ccccc1)NC(=O)c1cccc(O)c1)OCc1ccccc1 | 7.92 |
| O=C(Nc1ccccc1C(=O)N[C@@H](Cc1ccccc1)[C@@H](O)[C@@H](O)[C@H](Cc1ccccc1)NC(=O)c1cccc(O)c1)OCc1ccccn1 | 9.15 |
| O=C(Nc1ccccc1C(=O)N[C@@H](Cc1ccccc1)[C@H](O)[C@H](O)[C@H](Cc1ccccc1)NC(=O)c1cccc(O)c1)OCc1ccccn1 | 8.77 |
| Nc1ccc(C(=O)N[C@@H](Cc2ccccc2)[C@@H](O)[C@@H](O)[C@H](Cc2ccccc2)NC(=O)c2ccccc2NC(=O)OCc2ccccn2)cc1 | 8.18 |
| CC(C)(C)OC(=O)Nc1ccc(C(=O)N[C@@H](Cc2ccccc2)[C@@H](O)[C@@H](O)[C@H](Cc2ccccc2)NC(=O)OCc2ccccc2)cc1 | 7.80 |
